Each recorded value in this set is attributed to the supplement of paper PMC12042874.

Here the recorded amyloid nucleation score is given for each entry.
assayName: amyloid nucleation score (Sup35N fusion, yeast selection) (log enrichment); library NNK1; higher = more nucleation; inactive = no reads after selection;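 note: zero at mode of non-aggregating sequences after 7 days selection at 30°C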
quantityName: amyloid nucleation score

- biosequence: "HTNVWGGAHYTSIKAN"
  result: 0.581
- biosequence: "VEAPGLSCAIRGWNTVVIRR"
  result: 0.387
- biosequence: "ALMRLTRNSMSFWRQ"
  result: -0.17
- biosequence: "STRDQSDVMDRLTGEHHQQW"
  result: 0.363
- biosequence: "DTLHSNCCGSWPYDSSKRNV"
  result: 0.95
- biosequence: "GSADMRLDLQVVGCMTCRFE"
  result: 0.386
- biosequence: "LMDAEFIMVFTL"
  result: 0.918
- biosequence: "GPPSWSELDFHYCVGGWFYP"
  result: -0.456
- biosequence: "FGPGCCIFL"
  result: 7.48
- biosequence: "GQFEFCMFAQYGAS"
  result: -1.14
- biosequence: "SSAFSLRLFDLSLNYFEFDE"
  result: -0.595
- biosequence: "SLGLNMFGLLCSNFQSVRVK"
  result: 0.129
- biosequence: "LAFDYLLKFLDCR"
  result: -0.47
- biosequence: "NYVGWLLCASILVRYNGTLE"
  result: 1.26
- biosequence: "FSYRSIWLRVLRV"
  result: -0.111
- biosequence: "HHKPRPNIQFFRYSCKERAS"
  result: 0.035

###

assayName: amyloid nucleation score (Sup35N fusion, yeast selection) (log enrichment); library NNK3; higher = more nucleation; inactive = no reads after selection

- substance: "PRIFLSR"
  amyloid nucleation score: "inactive"
- substance: "CRDNTGFCRGSAAVFNRCTG"
  amyloid nucleation score: "inactive"
- substance: "IYNTGHSSRYLRTPVFAWSE"
  amyloid nucleation score: "inactive"
- substance: "YMCGSGCF"
  amyloid nucleation score: "inactive"
- substance: "GRNRHTYDRLYCPFVRSLIV"
  amyloid nucleation score: "inactive"
- substance: "VYNLVDIESEPKVVFNGLFL"
  amyloid nucleation score: "inactive"
- substance: "HNCPFFSTDMKCSKNIHIFG"
  amyloid nucleation score: 1.78
- substance: "LFISFIVLRKALFTYTCLCF"
  amyloid nucleation score: "inactive"
- substance: "VMAHFWRGKLLRSYVDRWRG"
  amyloid nucleation score: "inactive"
- substance: "RVTDLFRRLASNYILSSTTA"
  amyloid nucleation score: "inactive"
- substance: "EIRMRMIKRFVYD"
  amyloid nucleation score: 1.16
- substance: "TVTHALLSYKCHNG"
  amyloid nucleation score: "inactive"
- substance: "INSLFLRERICRVRCPGFAS"
  amyloid nucleation score: "inactive"
- substance: "AGPKALIVMPKICDGDIWME"
  amyloid nucleation score: "inactive"
- substance: "SVSGRPGEMFSRYYWIYGMY"
  amyloid nucleation score: "inactive"
- substance: "WPLYGLDWNPLGFNLRWYKF"
  amyloid nucleation score: "inactive"
- substance: "SSYLPHHISSQRLSSQEPAD"
  amyloid nucleation score: "inactive"
- substance: "DLWDTCCLII"
  amyloid nucleation score: "inactive"
- substance: "KRYNNIAYFVYLLFSLGVTT"
  amyloid nucleation score: "inactive"
- substance: "HIILFSIKSSKD"
  amyloid nucleation score: 1.37
- substance: "YKANFMGFSIYKRVGTRVWQ"
  amyloid nucleation score: 0.15
- substance: "TKRCKYCTKGNVQTHTWVAF"
  amyloid nucleation score: 0.466
- substance: "VGLSYVMINLGLPYLGRSAT"
  amyloid nucleation score: 1.83
- substance: "ENVPLNAAYCSL"
  amyloid nucleation score: "inactive"
- substance: "RLTVYISQRKKHHCLMERSH"
  amyloid nucleation score: 0.221
- substance: "VQISIDKAWMRTSTCSIGSK"
  amyloid nucleation score: "inactive"
- substance: "GTVLNSLPQQVGCLRLGSQG"
  amyloid nucleation score: "inactive"
- substance: "PFHRIPISVSLGYAFGTRCS"
  amyloid nucleation score: "inactive"
- substance: "SMASGRSALIKVV"
  amyloid nucleation score: "inactive"
- substance: "LSRLGWYRFCTIMGCYFWIL"
  amyloid nucleation score: "inactive"
- substance: "LSRCMWDSDMYRGERYGRRR"
  amyloid nucleation score: "inactive"
- substance: "VAFVNKCFSD"
  amyloid nucleation score: "inactive"
- substance: "INFSCLLLKHLFRWVRPYLS"
  amyloid nucleation score: "inactive"
- substance: "PVGVLYTSANGTDFVNIVRD"
  amyloid nucleation score: "inactive"
- substance: "LSITDVGI"
  amyloid nucleation score: "inactive"
- substance: "NMNCCLKMSVYLYRLLVHM"
  amyloid nucleation score: "inactive"
- substance: "APDQLF"
  amyloid nucleation score: "inactive"
- substance: "MWFPSVLWTIISQSYEMQKL"
  amyloid nucleation score: 0.783
- substance: "LGMIHFVFMYFETYCYTYTI"
  amyloid nucleation score: "inactive"
- substance: "TRCGFS"
  amyloid nucleation score: "inactive"
- substance: "IVSVQVVLLYQM"
  amyloid nucleation score: 1.12
- substance: "PWFTMVRIGEMVLYLRMQRR"
  amyloid nucleation score: "inactive"
- substance: "FNWTKS"
  amyloid nucleation score: "inactive"
- substance: "WHKKLGYTSFNRKLGFMASG"
  amyloid nucleation score: 0.101
- substance: "SMRSRCNFFTVCSAWLSFWE"
  amyloid nucleation score: "inactive"
- substance: "LNSFQHGY"
  amyloid nucleation score: "inactive"
- substance: "IYLKYSSYRNSLIILAVD"
  amyloid nucleation score: "inactive"
- substance: "SHSAFEGKVC"
  amyloid nucleation score: "inactive"
- substance: "IGLSLGCVFVMDNVLNARN"
  amyloid nucleation score: 1.55
- substance: "VGLRNLGFVMFSRWLTPLLI"
  amyloid nucleation score: "inactive"
- substance: "PYVECSWEAQG"
  amyloid nucleation score: "inactive"
- substance: "YKDIRCGWLMFGVANLQ"
  amyloid nucleation score: "inactive"
- substance: "VWNFPNILCFGWIFRA"
  amyloid nucleation score: 1.64
- substance: "LSNFITTLSTWITLSI"
  amyloid nucleation score: "inactive"
- substance: "AVPDVKSAKVDLVNFILAVC"
  amyloid nucleation score: "inactive"
- substance: "LLYNTMSLSSSWEY"
  amyloid nucleation score: 0.893
- substance: "MDKYTRTRPQTRGRAVSCYY"
  amyloid nucleation score: "inactive"
- substance: "DLNMGYKFLISKYSWPVYPM"
  amyloid nucleation score: "inactive"
- substance: "GIFVGPSVDSLLKLRARSHY"
  amyloid nucleation score: "inactive"
- substance: "QGWPRKITVILFWILQSGSR"
  amyloid nucleation score: "inactive"
- substance: "CFAHSLMR"
  amyloid nucleation score: "inactive"
- substance: "SKCVGFIMNFLISSDNEDSN"
  amyloid nucleation score: 2.27
- substance: "AMVYMMNLEIHVYSIRYA"
  amyloid nucleation score: 1.68
- substance: "MPDLITGGKPAIRWYYGSDS"
  amyloid nucleation score: "inactive"
- substance: "SSYGSPIIVLNTHSTVGIRI"
  amyloid nucleation score: 1.59
- substance: "CRNKFLVKGAFTRGSREN"
  amyloid nucleation score: "inactive"
- substance: "GSVSYLNMTVFFSTVLFIYT"
  amyloid nucleation score: "inactive"
- substance: "YVNSNWNNISAQASNSFSGR"
  amyloid nucleation score: "inactive"
- substance: "LLGVLDSLMRRFMNHINETG"
  amyloid nucleation score: "inactive"
- substance: "DSLKIR"
  amyloid nucleation score: "inactive"
- substance: "NRVSFPRGSKFCTFL"
  amyloid nucleation score: "inactive"
- substance: "LSCFNSVAHCDVNSGMFQIV"
  amyloid nucleation score: "inactive"
